experiment_notes: Selectivity index, ratio of IC50 for mouse RAW264.7 cells to MIC for methicillin-resistant Staphylococcus aureus ATCC52056
Format: toxicity
experimental_parameters: read-out: Selectivity Index
value_kind: selectivity ratio

// solved cases for selectivity ratio follow
selectivity ratio for `COc1cc(/C=C/c2ccc(C(F)(F)F)cc2)c(C(=O)O)c(O)c1CC=C(C)C` ?
6.43

Moving on to the next compound: `COc1cc(/C=C/c2ccc(F)cc2F)c(C(=O)O)c(O)c1CC=C(C)C`
23.3

Further cases:
Could you tell me which selectivity ratio is on file for `COc1cc(/C=C/c2cccc(F)c2)c(C(=O)O)c(O)c1CC=C(C)C` ?
40.3

Continue with `COc1cc(/C=C/c2ccccc2F)c(C(=O)O)c(O)c1CC=C(C)C`
12.3
